meta.source: patent US10723711B2

Target: human recombinant Monoacylglycerol Lipase (Homo sapiens, UniProt Q99685)
Sequence (Q99685 1-303): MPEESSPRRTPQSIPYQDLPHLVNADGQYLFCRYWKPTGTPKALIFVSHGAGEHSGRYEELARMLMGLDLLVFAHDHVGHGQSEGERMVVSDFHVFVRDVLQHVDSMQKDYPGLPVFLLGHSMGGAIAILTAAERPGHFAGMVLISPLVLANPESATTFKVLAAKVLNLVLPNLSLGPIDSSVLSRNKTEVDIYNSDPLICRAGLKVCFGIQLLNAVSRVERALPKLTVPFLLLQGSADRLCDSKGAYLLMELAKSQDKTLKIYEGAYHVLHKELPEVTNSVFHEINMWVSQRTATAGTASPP
Experiment: MAGL inactivation, enzyme progress curves, kinact/KI
Assay type: biochemical
Conditions: from enzyme progress curves, T = 0 min protocol; geometric mean of 2-4 determinations unless otherwise indicated
OBSERVED_PROPERTY: MAGL kinact/KI

For O=C(O[C@H](CO)C(F)(F)F)N1CCC2(CC1)CN(CC1CCCOC1)CCO2 (single isomer, unassigned) , write its MAGL kinact/KI.
5489 1/s per M

Answer with reported MAGL kinact/KI of O=C(O[C@H](CO)C(F)(F)F)N1CCC2(CCCN(S(=O)(=O)c3ccc(F)cc3)C2)CC1
1801 1/s per M

State its MAGL kinact/KI for this compound: CC(C)CC(=O)N(C)[C@H]1COC2(CCN(C(=O)O[C@H](CO)C(F)(F)F)CC2)C1
2802 1/s per M

Name the recorded MAGL kinact/KI of the item CC(C)Oc1ccc(S(=O)(=O)N2CCOC3(CCN(C(=O)O[C@H](CO)C(F)(F)F)CC3)C2)cc1 in your answer.
16865 1/s per M

Please report the measured MAGL kinact/KI for COc1ccc(-n2ccc([C@H]3[C@@H]4CN(C(=O)O[C@H](CO)C(F)(F)F)C[C@@H]43)n2)nc1
7806 1/s per M

For the compound O=C(O)C(F)(F)F.O=C(O[C@H](CO)C(F)(F)F)N1CCC(Oc2nccc3ccccc23)CC1 , give its reported MAGL kinact/KI.
16949 1/s per M

* * *

Molecular target: human recombinant FAAH (Homo sapiens, UniProt O00519)
Sequence (O00519 1-579): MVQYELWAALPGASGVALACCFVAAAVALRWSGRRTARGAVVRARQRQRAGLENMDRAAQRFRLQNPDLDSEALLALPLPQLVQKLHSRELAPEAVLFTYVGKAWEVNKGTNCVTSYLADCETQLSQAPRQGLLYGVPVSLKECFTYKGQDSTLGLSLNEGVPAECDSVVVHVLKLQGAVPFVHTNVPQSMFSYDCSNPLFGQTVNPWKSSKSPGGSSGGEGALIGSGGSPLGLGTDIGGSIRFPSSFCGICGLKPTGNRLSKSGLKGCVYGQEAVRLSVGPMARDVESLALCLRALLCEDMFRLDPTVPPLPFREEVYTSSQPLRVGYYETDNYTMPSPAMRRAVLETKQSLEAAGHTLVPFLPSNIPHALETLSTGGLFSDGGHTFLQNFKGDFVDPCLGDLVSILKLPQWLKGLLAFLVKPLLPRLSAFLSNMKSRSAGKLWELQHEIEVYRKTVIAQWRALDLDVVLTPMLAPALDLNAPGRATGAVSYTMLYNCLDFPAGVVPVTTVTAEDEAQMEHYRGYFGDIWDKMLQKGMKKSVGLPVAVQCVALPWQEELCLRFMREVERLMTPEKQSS
Assay: FAAH inhibition enzymatic assay, fluorescent substrate Arachidonoyl-AMC, 30 minute incubation
Conditions: T = 30 min (30 minute incubation); geometric mean of 2-4 determinations unless otherwise indicated
pIC50: −log10 of the molar value.
OBSERVED_PROPERTY: pIC50

Under human recombinant FAAH (Homo sapiens, UniProt O00519), report pIC50 for CN(C1COC2(CCN(C(=O)O[C@H](CO)C(F)(F)F)CC2)C1)S(=O)(=O)c1cncnc1 (mixture of isomers)
< 4.52

Answer briefly: pIC50 recorded on human recombinant FAAH (Homo sapiens, UniProt O00519) for O=C(O[C@H](CO)C(F)(F)F)N1CCC(Oc2ccc(C(F)(F)F)cn2)CC1
< 4.52

Return reported pIC50 for target or system human recombinant FAAH (Homo sapiens, UniProt O00519), item O=C(O[C@H](CO)C(F)(F)F)N1CCC2(CC1)CCN(S(=O)(=O)c1nccs1)C2 .
< 4.63

Fill: pIC50 (human recombinant FAAH (Homo sapiens, UniProt O00519)) for this compound O=C(O[C@H](CO)C(F)(F)F)N1CCC2(CC1)CC(Oc1ccccn1)CO2 (single isomer, unassigned)
4.59

Provide pIC50, recorded with human recombinant FAAH (Homo sapiens, UniProt O00519), of O=C(O[C@H](CO)C(F)(F)F)N1C[C@@H]2[C@H](C1)[C@H]2c1ccn(-c2ccc(F)cc2)n1
5.61

State recorded pIC50 with human recombinant FAAH (Homo sapiens, UniProt O00519), entry O=C(O)C(F)(F)F.O=C(O[C@H](CO)C(F)(F)F)N1CCC2(CC1)CC(c1ccc(F)cn1)CO2 (mixture of isomers) [Example 97, trifluoroacetate salt] , no comment.
< 4.52

Name the value of pIC50 reported for CC(C)CC(=O)N(C)[C@H]1COC2(CCN(C(=O)O[C@H](CO)C(F)(F)F)CC2)C1 when tested on human recombinant FAAH (Homo sapiens, UniProt O00519).
< 4.52

* * *

Molecular target: human recombinant Monoacylglycerol Lipase (Homo sapiens, UniProt Q99685)
Experiment: MAGL inhibition enzymatic assay, fluorogenic substrate 7-HCA, IC50 at T=0 min or after 30 minute incubation (T=30 min)
Format: biochemical
Details: T = 30 min (30 minute incubation); geometric mean of 2-4 determinations unless otherwise indicated; read-out: MAGL (T = 30 min) IC50
Experimental: An equal volume of 7-HCA in assay buffer with 10% DMSO was added either immediately (T=0 min) or after a 30 minute incubation (T=30 min) to initiate the reaction. […] After these dilutions, the final concentration of the test compound ranged from 3 μM to 0.03 nM. […] IC50 values were generated based on a four parameter fit model using ABASE software from IDBS.
OBSERVED_PROPERTY: IC50 (nM)
Response body: numeric value in nM, unit text excluded.

For the compound CN(C(=O)C1CCC1)[C@H]1COC2(CCN(C(=O)O[C@H](CO)C(F)(F)F)CC2)C1 , give its measured IC50 value.
9

For O=C(O[C@H](CO)C(F)(F)F)N1CCC2(CC1)CN(S(=O)(=O)c1ccc(F)cc1)CCO2 , write its IC50.
7

Retrieve IC50 measured for Cc1ccc(OC2CCN(C(=O)O[C@H](CO)C(F)(F)F)CC2)nc1 and print it.
10

For the compound O=C(OC(C(F)(F)F)C(F)(F)CO)N1CCC2(CC1)CN(S(=O)(=O)c1ccc(F)cc1)CCO2 (racemic) [Example 19] , report IC50.
8

* * *

Biological target: human recombinant Monoacylglycerol Lipase (Homo sapiens)
Assay: MAGL inhibition enzymatic assay, fluorogenic substrate 7-HCA, IC50 at T=0 min or after 30 minute incubation (T=30 min)
Format: biochemical
Conditions: T = 0 min (substrate added immediately); geometric mean of 2-4 determinations unless otherwise indicated; read-out: MAGL (T = 0 min) IC50
Assignment: determine reported log10 of IC50 for the given compounds.
Record value = log10 of IC50 given in nM.

Note down log10 of IC50 recorded for O=C(O[C@H](CO)C(F)(F)F)N1CCC2(CC1)CC(c1cccc(Cl)c1)CO2 (mixture of isomers) [Example 119]
1.51

Assign log10 of IC50 to the following record: CN(C(=O)CC1CC1)[C@H]1COC2(CCN(C(=O)O[C@H](CO)C(F)(F)F)CC2)C1 [Example 145]
2.30

Quote log10 of IC50 reported for CC(C)c1cccc(S(=O)(=O)N2CCOC3(CCN(C(=O)O[C@H](CO)C(F)(F)F)CC3)C2)c1 [Example 66] please.
0.48

Complete the entry with log10 of IC50 for O=C(O[C@H](CO)C(F)(F)F)N1CCC(Oc2ccc(C(F)(F)F)cn2)CC1 [Example 53]
1.72

// fetch log10 of IC50 given entry Cn1nccc1-c1ccnc(OC2CCN(C(=O)O[C@H](CO)C(F)(F)F)CC2)c1 [Example 64]
2.74

For the compound O=C(O[C@@H]([C@@H](O)C(F)(F)F)C(F)(F)F)N1C[C@@H]2[C@H](C1)[C@H]2c1ccn(-c2ccc(F)cc2)n1 (racemic) [Example 36] , give its reported log10 of IC50.
2.12

Read off the recorded log10 of IC50 for O=C(O[C@H](CO)C(F)(F)F)N1CCC2(CC1)CC(c1cccnc1)CO2 (mixture of isomers) [Example 122]
2.59

Using the record for C#Cc1ccc(S(=O)(=O)N2CCOC3(CCN(C(=O)O[C@H](CO)C(F)(F)F)CC3)C2)cc1 [Example 68] , state its measured log10 of IC50.
1.75

Give reported log10 of IC50 value for O=C(O[C@H](CO)C(F)(F)F)N1CCC2(CC1)CC(c1ccccc1)CO2 (single isomer, unassigned) [Example 95]
1.20

Given O=C(O[C@H](CO)C(F)(F)F)N1CCC(Oc2ccc(C3CC3)cn2)CC1 [Example 10] , respond with its log10 of IC50.
1.89

Please give the documented log10 of IC50 of O=C(O[C@H](CO)C(F)(F)F)N1CCC2(CC1)CN(c1ccc(F)cn1)CCO2 [Example 14]
2.69

Write down log10 of IC50 measured for item O=C(O[C@H](CO)C(F)(F)F)N1CCC2(CC1)CCN(C(=O)c1ccccc1)C2 [Example 126]
2.05

Please report the measured log10 of IC50 for O=C(O[C@H](CO)C(F)(F)F)N1CCC2(CC1)CC(c1cccc(OC(F)(F)F)c1)CO2 (mixture of isomers) [Example 118]
0.30

Supply reported log10 of IC50 belonging to this compound: COc1ccc(-n2ccc([C@H]3[C@@H]4CN(C(=O)O[C@H](CO)C(F)(F)F)C[C@@H]43)n2)cn1 [Example 69]
2.02

Answer with the recorded log10 of IC50 of O=C(O[C@H](CO)C(F)(F)F)N1CCC2(CC1)CN(S(=O)(=O)c1ccc(F)c(F)c1)CCO2 [Example 52] only.
1.75

Return the recorded log10 of IC50 value; entry: O=C(O[C@H](CO)C(F)(F)F)N1CCC2(CC1)CN(S(=O)(=O)c1ccccc1F)CCO2 [Example 84]
1.41

Answer with the recorded log10 of IC50 of CCN([C@H]1COC2(CCN(C(=O)O[C@H](CO)C(F)(F)F)CC2)C1)S(=O)(=O)c1ccccc1 [Example 92] only.
0.78

Give log10 of IC50 for the following compound: CN(C1COC2(CCN(C(=O)O[C@H](CO)C(F)(F)F)CC2)C1)S(=O)(=O)c1cncnc1 (mixture of isomers) [Example 115]
2.53

Identify measured log10 of IC50 corresponding to CN(C1COC2(CCN(C(=O)O[C@H](CO)C(F)(F)F)CC2)C1)S(=O)(=O)c1cccnc1 (mixture of isomers) [Example 114]
2.21
